B1: TPR t1 (parent)
chain: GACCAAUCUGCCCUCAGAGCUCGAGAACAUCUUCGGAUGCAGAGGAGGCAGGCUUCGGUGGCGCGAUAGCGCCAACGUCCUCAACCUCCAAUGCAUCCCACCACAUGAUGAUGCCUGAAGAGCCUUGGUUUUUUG

# Variants of: B1
# method.summary: polymerase ribozyme fitness, log enrichment relative to wild type (log ratio); higher = more active; in vitro selection for triplet polymerase activity
parameter: polymerase ribozyme fitness (log ratio)

Use these answered entries as a reference point.
G63C C97A G120C U126A: -6.28
G52U G69U A91C C104A: -2.27
G42A U96A: -2.83
G51A U106A: -2.35
C12A G71A: -1.07

Incoming: Field request: polymerase ribozyme fitness (log ratio) | item: C8U C22A A26G C28U C34A G63U C104A U112C G135A
Outgoing: -2.92

Incoming: Field request: polymerase ribozyme fitness (log ratio) | item: C12U G45A U96C G110U G135A
Outgoing: -2.06

Incoming: Field request: polymerase ribozyme fitness (log ratio) | item: A6U C11G G48U C56U C64U A83C
Outgoing: -4.78

Incoming: Field request: polymerase ribozyme fitness (log ratio) | item: U87C U130C
Outgoing: 0.298

Incoming: Field request: polymerase ribozyme fitness (log ratio) | item: C114U U125A
Outgoing: -3.07

Incoming: Field request: polymerase ribozyme fitness (log ratio) | item: U38A G58C C115A
Outgoing: -1.1

Incoming: Field request: polymerase ribozyme fitness (log ratio) | item: G47C G48A C86U A90U
Outgoing: -2.46

Incoming: Field request: polymerase ribozyme fitness (log ratio) | item: A6U U30C G60A G122A
Outgoing: -5.6

Incoming: Field request: polymerase ribozyme fitness (log ratio) | item: C72U A91U A100U A119U
Outgoing: -3.58

Incoming: Field request: polymerase ribozyme fitness (log ratio) | item: U96A G128U
Outgoing: -1.89

Incoming: Field request: polymerase ribozyme fitness (log ratio) | item: C8G C88A A111C
Outgoing: 0.461
